# Tested on: MCF7
# assay procedure: Cytotoxicity against human MCF7 cells after 96 hrs by MTA reduction assay
# Format: functional, cell-based
# assay setup: MCF7, 96 h
property measured: IC50 (µM)
Numbers only, in µM.

Query: Lab note: need IC50 for `Cc1ccc(CNCCCCNCCCCCC(=O)NCc2ccc(C(=O)Nc3ccccc3N)cc2)cc1` on MCF7, anyone have it?
Response: 0.9

---

# assay procedure: Cytotoxicity against human MCF10A cells after 96 hrs by MTA reduction assay
# Assay type: ADME, cell-based
# assay setup: MCF-10A
property measured: IC50 (µM)
Answers are plain numbers, in µM.

Query: State the recorded IC50 for this entry: `Cc1ccc(CNCCCCNCCCCCC(=O)NCc2ccc(C(=O)Nc3ccccc3N)cc2)cc1`
Response: 24

---

# assay procedure: Selectivity ratio of IC50 for human MCF10A cells to IC50 for human MCF7 cells
# Assay type: ADME, cell-based, MCF-10A
# assay setup: MCF10A cells versus MCF7 cells, read-out: Ratio IC50
property measured: selectivity ratio

Query: // returns reported selectivity ratio for input `Cc1ccc(CNCCCCNCCCCCC(=O)NCc2ccc(C(=O)Nc3ccccc3N)cc2)cc1`
Response: > 25

The values you see were collected from ChEMBL document CHEMBL3217735.
